- TEST TARGET: Serotonin 1a (5-HT1a) receptor/Adrenergic receptor alpha-1 (Rattus norvegicus) (UniProt P15823+P23944+P43140+P19327)
- PROCEDURE TEXT: Selectivity ratio of IC50 value against alpha-1 receptor to that of 5-HT1A receptor.
- Format: protein assay
Tick Criterion met if Selectivity is 10 or greater. Tick Criterion not met if Selectivity is less than 10.

Below are worked cases with known answers.
INSERT INTO results (compound, label_value) VALUES
  ('COc1ccc2c(c1)C(CCCN1CCN(c3ccccc3OC)CC1)=CCC2', 'Criterion met'),
  ('COc1ccc2c(c1)C(CCCN1CCN(c3cccc(C(F)(F)F)c3)CC1)=CCC2', 'Criterion met'),
  ('COc1cccc2c1CCC=C2CCCN1CCN(c2cccc(C(F)(F)F)c2)CC1', 'Criterion not met'),
  ('COc1ccccc1N1CCN(CCSC2CCCc3c(OC)cccc32)CC1 (stereo unspecified)', 'Criterion met'),
  ('COc1ccccc1N1CCN(CCCC2CCCc3ccccc32)CC1 (stereo unspecified)', 'Criterion not met');

Consider the record given below.
Query :: Check if Selectivity >= 10 (inclusive). Item: COc1ccccc1N1CCN(CCCCC2CCCc3c(OC)cccc32)CC1 (stereo unspecified)
Result :: Criterion met
